- Tested on: DeltatarO mutant
- experimental.protocol: S. aureus survival, RN4220 and DeltatarO strains – OD600, teichoic acid synthesis inhibitors, primary screen (AID 463173)
- condition.set: S. aureus RN4220 wild type/DeltatarO growth, OD600, 18 h, hits give low values, screened at 18.75 µg/mL (by protocol)
Out of some 52,000 compounds screened, about 4,300 (8.3%) were called active. The sample holds actives, similar compounds and a random draw of the others, so the mix is not that of the screen.
Threshold check on survival: strictly below 90% is 1; on or above 90% is 0.

In [3]: df
Out[3]:
                                   compound         tested_on  assigned_category
0     O=C(O)CCc1ccc(-c2ccc(F)cc2)n1CCC(=O)O  DeltatarO mutant                  0
1  CCOC(=O)c1cc(C)n(CC2CCC(C(=O)Nc3ccc(Cl)cc3)CC2)c1C (stereo unspecified)  DeltatarO mutant                  1

Confirm or reject: survival of O=C(CCN1N=C(c2ccccc2)CCC1=O)NCCc1ccc(Cl)cc1 lies strictly below 90%
0

Confirm or reject: survival of CCOC(=O)C1CCC(CN(Cc2ccc(OC)cc2)S(=O)(=O)c2ccc(F)c(C(=O)Nc3c(C)cccc3C)c2)CC1 (stereo unspecified) lies strictly below 90%
1

Confirm or reject: survival of O=C(Nc1cc(-c2nc3cc(Cl)ccc3o2)ccc1Cl)c1ccco1 lies strictly below 90%
1

Confirm or reject: survival of CCOC(=O)c1cc(C)n(CC2CCC(C(=O)Nc3ccccc3OC)CC2)c1C (stereo unspecified) lies strictly below 90%
0

Confirm or reject: survival of CCC(CC)C(=O)N1c2ccccc2C(C)(c2ccccc2)CC1(C)C (stereo unspecified) lies strictly below 90%
1

###

Measured survival, listed per entry.
- System: DeltatarO mutant
- experimental.protocol: S. aureus survival, RN4220 and DeltatarO strains – OD600, teichoic acid synthesis inhibitors, primary screen (AID 463173)
- condition.set: S. aureus RN4220 wild type/DeltatarO growth, OD600, 18 h, hits give low values, screened at 18.75 µg/mL (by protocol)
The whole screen tested about 52,000 compounds, of which about 4,300 (8.3%) were called active. Many of the other results were omitted from the sample, so actives are more common in it than they were.
Quick reminder: number only, in %, skip the unit.

Some entries whose results are on file:
>>> print(df.to_string())
                                   compound  test_value
0  COc1ccc(-c2cc(C(F)(F)F)nc(NCc3ccccc3)n2)cc1          -4
1  COc1ccc(CNC(=O)C(C)Sc2nc(-c3ccccc3)cc(C(F)(F)F)n2)cc1 (stereo not given)         165
2  COc1ccc(OC)c(NC(=O)c2nnn(CC(=O)Nc3ccc(C(C)C)cc3)c2N)c1          63

Fill blank: measured survival of the compound COC(=O)CSc1ncc(C#N)c(N)n1 is ____.
110

Fill blank: measured survival of the compound COc1ccc(OC)c(CNC(=O)c2c3c(nc4ccccc24)C(=O)N(C2CCCCC2)C3)c1 is ____.
93

Fill blank: measured survival of the compound COc1ccc(CNc2nc(-c3ccc(OC)c(OC)c3)cc(C(F)(F)F)n2)cc1 is ____.
11

Fill blank: measured survival of the compound OC(COc1ccc(Cl)cc1Cl)CN1CCCCC1 (stereo not given) is ____.
70

Fill blank: measured survival of the compound COc1ccc(-c2cc(C(F)(F)F)nc(SCC(=O)NC(C)c3ccccc3)n2)cc1 (stereo not given) is ____.
60

Fill blank: measured survival of the compound O=C(CN1C=NS(=O)(=O)c2ccccc21)Nc1ccc(F)cc1 is ____.
87

Fill blank: measured survival of the compound Cc1ccc(OCC(O)Cn2c(=N)n(CCN3CCCCC3)c3ccccc32)cc1 (stereo not given) is ____.
36
